Origin of values: patent US12410157B2

Assay: Plasma concentration in normal mice after oral administration
Type: in vivo, mice (C57BL/6N)
Details: female, mouse, plasma, po; C57BL/6N mice, 1 mg orally, LC/MS/MS
QUANTITY_NAME: concentration at 8 h

- TEST_SMILES: "C=C(C)[C@@H]1CC[C@]2(COC(=O)C2)C[C@H]1c1ccc(CN2CCNCC2)cc1"
  QUANTITY_NAME: "concentration at 8 h"
  RESULT: "~0.5 µg/mL"

----------
Assay: Plasma concentration in mouse model of systemic lupus erythematosus after oral administration
Assay type: in vivo
Settings: female, mouse, plasma, po; NZBWF1 mice, 5 mg/kg orally, LC/MS/MS
QUANTITY_NAME: concentration at 0.5 h (ng/mL)

- COMPOUND: "C=C(C)[C@@H]1CC[C@]2(COC(=O)C2)C[C@H]1c1ccc(CN2CCNCC2)cc1 [B2-24-4-5A·HCOOH]"
  QUANTITY_NAME: "concentration at 0.5 h"
  NUMERIC_VALUE: 88.1

----------
Biological target: mouse TLR7 (Mus musculus)
Construct: expressed in transfected cells; host or cells: Ba/F3 cells (provided by Prof. Kensuke Miyake, University of Tokyo)
Sequence (P58681 27-1050): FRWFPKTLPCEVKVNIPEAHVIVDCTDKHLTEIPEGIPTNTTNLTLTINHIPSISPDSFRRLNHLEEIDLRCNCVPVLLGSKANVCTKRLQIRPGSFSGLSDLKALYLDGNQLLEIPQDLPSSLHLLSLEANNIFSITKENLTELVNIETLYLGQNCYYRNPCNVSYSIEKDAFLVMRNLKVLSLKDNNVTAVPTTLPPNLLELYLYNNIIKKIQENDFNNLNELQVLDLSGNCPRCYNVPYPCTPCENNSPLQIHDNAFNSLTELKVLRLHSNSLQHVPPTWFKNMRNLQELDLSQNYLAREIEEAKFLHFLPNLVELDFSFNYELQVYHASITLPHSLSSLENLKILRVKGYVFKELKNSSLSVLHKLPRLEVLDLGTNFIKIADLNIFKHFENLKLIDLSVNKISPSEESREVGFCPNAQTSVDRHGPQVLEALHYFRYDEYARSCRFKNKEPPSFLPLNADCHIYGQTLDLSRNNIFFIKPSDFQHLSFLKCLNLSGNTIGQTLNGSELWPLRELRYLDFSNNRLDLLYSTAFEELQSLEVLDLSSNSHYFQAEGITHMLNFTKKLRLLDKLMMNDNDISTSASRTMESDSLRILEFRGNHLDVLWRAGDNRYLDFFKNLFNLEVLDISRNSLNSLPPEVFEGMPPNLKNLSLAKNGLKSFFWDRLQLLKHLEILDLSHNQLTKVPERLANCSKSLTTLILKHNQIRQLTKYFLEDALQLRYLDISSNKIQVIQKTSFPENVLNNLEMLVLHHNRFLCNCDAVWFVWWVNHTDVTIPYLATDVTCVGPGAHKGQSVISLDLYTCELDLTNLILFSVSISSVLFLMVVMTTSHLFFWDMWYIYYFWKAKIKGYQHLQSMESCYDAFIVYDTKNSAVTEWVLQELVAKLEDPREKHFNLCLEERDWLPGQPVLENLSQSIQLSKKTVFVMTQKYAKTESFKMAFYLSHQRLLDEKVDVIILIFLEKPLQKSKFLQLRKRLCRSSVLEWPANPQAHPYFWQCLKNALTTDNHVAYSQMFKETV
Experiment: Inhibition of TLR7 activation in mouse TLR7-expressing NF-κB-GFP reporter Ba/F3 cells
Format: cell-based
Details: Example 2; Ba/F3 reporter cells, loxoribine stimulation 18 hours, GFP MFI; read-out: IC50 of CB-7 derivatives with modified Areas a and b

- COMPOUND: "C=C[C@]1(CO)CC[C@@H](C(=C)C)[C@H](c2ccc(-c3ccccc3)cc2)C1"
  IC50: "> 50 µM"
- COMPOUND: "C=C[C@]1(CO)CC[C@@H](C(=C)C)[C@H](c2ccc(-c3ccc(OC)cc3)cc2)C1"
  IC50: "> 100 µM"
- COMPOUND: "C=C(C)[C@@H]1CC[C@@](CO)(CCN(C)C)C[C@H]1c1ccc(OC)cc1"
  IC50: "> 100 µM"
- COMPOUND: "C=C(C)[C@@H]1CC[C@@](CO)(CC(=O)N(C)C)C[C@H]1c1ccc(OC)cc1"
  IC50: "> 100 µM"
- COMPOUND: "C=C[C@]1(CO)CC[C@@H](C(=C)C)[C@H](c2ccc(Oc3ccccc3)cc2)C1"
  IC50: "> 50 µM"
- COMPOUND: "C=C(C)[C@@H]1CCC(O)(CNS(C)(=O)=O)C[C@H]1c1ccc(OC)cc1 (stereo partly shown)"
  IC50: "> 10 µM"
- COMPOUND: "C=C(C)[C@@H]1CCC(=O)C[C@H]1c1ccc(OC)cc1 [I-7(Intermediate)]"
  IC50: "> 100 µM"
- COMPOUND: "C=C(C)[C@@H]1CC[C@]2(COC(=O)C2)C[C@H]1c1ccc2ccccc2c1"
  IC50: "> 100 µM"
- COMPOUND: "C=C[C@]1(CO)CC[C@@H](C(=C)C)[C@H](c2ccc3ccccc3c2)C1"
  IC50: "> 100 µM"
- COMPOUND: "C=C(C)[C@@H]1CC[C@@](COC)(CC(=O)O)C[C@H]1c1ccc(OC)cc1"
  IC50: "> 100 µM"
- COMPOUND: "C=C(C)[C@@H]1CC[C@](CC(=O)O)(C(=O)OC)C[C@H]1c1ccc(OCCCO)cc1"
  IC50: "> 10 µM"
- COMPOUND: "C=C[C@]1(C(=O)OC)CC[C@@H](C(=C)C)[C@H](c2ccc(O)cc2)C1"
  IC50: "> 100 µM"
- COMPOUND: "C=C(C)[C@@H]1CCC(O)(CN(C)C)C[C@H]1c1ccc(OC)cc1 (stereo partly shown)"
  IC50: "> 100 µM"
